Recorded values, source patent US12171229B2.

# System: Myzus persicae
# methodDescription: Myzus persicae oral test
# Assay type: in vivo
# conditionDetails: 120 h, 20 ppm, after 5 days
The following compounds are listed with their measured mortality at 20 ppm values.
# unit: % | format: bare number

Sample answers from the record:
compound: CC(c1ncnn1-c1ccc(C#N)cn1)N(CC1CC1)C(=O)c1cc(Cl)cc(C(F)(F)F)c1 (stereo not shown)
unitInfo: %
number: 100
--
compound: CC(c1ncnn1-c1nccs1)N(CC1CC1)C(=O)c1cc(Cl)cc(C(F)(F)F)c1 (stereo not shown)
unitInfo: %
number: 90
--
compound: CC(c1ncnn1-c1ccn(C)n1)N(CC1CC1)C(=O)c1cc(Cl)cc(C(F)(F)F)c1 (stereo not shown)
unitInfo: %
number: 100

Challenge: Reported mortality at 20 ppm for CC(c1ncnn1-c1ncc(C#N)cn1)N(CC1CC1)C(=O)c1cc(Cl)cc(C(F)(F)F)c1 (stereo not shown) : what is it?
Response given: 100

* * *

# Test system: Myzus persicae
# methodDescription: Myzus persicae spray test
# Type: in vivo
# conditionDetails: foliar, 120 h, 500 g/ha, after 5 days, Chinese cabbage leaf disks
measuredParameter: mortality at 500 g/ha (%)
Kindly provide the numeric value in % only, without the unit symbol.

Example entries begin here.
compound: C[C@H](NC(=O)c1cc(Cl)cc(C(F)(F)F)c1)c1ncnn1-c1ccc(NC(=S)C2CC2)cn1 [Example I-098]
unitInfo: %
mortality at 500 g/ha: 90
//
compound: C[C@H](NC(=O)c1cc(Cl)cc(C(F)(F)F)c1)c1ncnn1-c1ccc(NC(=O)C2(C#N)CC2)cn1 [Example I-076]
unitInfo: %
mortality at 500 g/ha: 100
//
compound: C[C@H](NC(=O)c1cc(Cl)cc(C(F)(F)F)c1)c1ncnn1-c1cc(C#N)ccn1 [Example I-015]
unitInfo: %
mortality at 500 g/ha: 100

From here, focus on the item given below.
Challenge: Please look up its mortality at 500 g/ha: Cc1nc([C@H](C)NC(=O)c2cc(C(F)(F)F)cc(C(F)(F)F)c2)n(-c2ccc(C#N)cn2)n1 [Example I-056]
Response given: 90

* * *

# Tested on: Myzus persicae
# methodDescription: Myzus persicae spray test
# Format: in vivo
# conditionDetails: foliar, 120 h, 500 g/ha, after 5 days, Chinese cabbage leaf disks
mortality at 500 g/ha values, listed per item
Report the value in % with no unit label.

Reference set (8 entries):
smilesEntry: C[C@H](NC(=O)c1cc(Cl)cc(C(F)(F)F)c1)c1ncnn1-c1ccc(NC(=O)C2CC2)cn1
mortality at 500 g/ha / %: 100
//
smilesEntry: C[C@H](NC(=O)c1cc(Cl)cc(OC(F)(F)F)c1)c1ncnn1-c1ccc(NC(=O)C2CC2)cn1
mortality at 500 g/ha / %: 90
//
smilesEntry: C[C@H](NC(=O)c1cc(Cl)cc(OC(F)(F)F)c1)c1ncnn1-c1ccc([N+](=O)[O-])cn1
mortality at 500 g/ha / %: 90
//
smilesEntry: C[C@H](NC(=O)c1cc(Cl)cc(C(F)(F)F)c1)c1ncnn1-c1ccc(NC(=O)CC#N)cn1
mortality at 500 g/ha / %: 90
//
smilesEntry: CNC(=O)c1ccc(-n2ncnc2[C@H](C)NC(=O)c2cc(Cl)cc(C(F)(F)F)c2)nc1
mortality at 500 g/ha / %: 90
//
smilesEntry: CC(=O)Nc1ccc(-n2ncnc2[C@H](C)NC(=O)c2cc(Cl)cc(C(F)(F)F)c2)nc1
mortality at 500 g/ha / %: 100
//
smilesEntry: C[C@H](NC(=O)c1cc(Cl)cc(C(F)(F)F)c1)c1ncnn1-c1ncc(F)cc1F
mortality at 500 g/ha / %: 90
//
smilesEntry: C[C@H](NC(=O)c1cncc(C(F)(F)F)c1)c1ncnn1-c1ccc(C#N)cn1
mortality at 500 g/ha / %: 90

Challenge: Fill in the blank: the reported mortality at 500 g/ha of `C[C@H](NC(=O)c1cc(Cl)cc(C(F)(F)F)c1)c1ncnn1-c1ccc(NC(=O)C2(Cl)CC2)cn1` is ____.
Response given: 90

Challenge: Find the recorded mortality at 500 g/ha belonging to `C[C@H](NC(=O)c1cc(Cl)cc(C(F)(F)F)c1)c1ncnn1-c1ncc(Cl)cc1F` and report it.
Response given: 100

Challenge: Please give the measured mortality at 500 g/ha for this molecule: `Cc1nc([C@H](C)NC(=O)c2cc(Cl)cc(Cl)c2)n(-c2ccc(C#N)cn2)n1`
Response given: 100

* * *

# System: Myzus persicae
# methodDescription: Myzus persicae spray test
# Type: in vivo
# conditionDetails: foliar, 120 h, 500 g/ha, after 5 days, Chinese cabbage leaf disks
In this section we review reported mortality at 500 g/ha values for a set of compounds.
Write the numeric value and append its unit.

Challenge: Which mortality at 500 g/ha value belongs to C[C@H](NC(=O)c1cc(Cl)cc(C(F)(F)F)c1)c1ncnn1-c1ccc(N(S(C)(=O)=O)S(C)(=O)=O)cn1 [Example I-037] ?
Response given: 90%

Challenge: Which mortality at 500 g/ha value belongs to CC(=O)Nc1ccc(-n2ncnc2[C@H](C)NC(=O)c2cc(Cl)cc(OC(F)(F)F)c2)nc1 [Example I-106] ?
Response given: 90%

Challenge: Which mortality at 500 g/ha value is on record for C[C@H](NC(=O)c1cc(C(F)(F)F)cc(C(F)(F)F)c1)c1ncnn1-c1ccc(C#N)cn1 [Example I-052] ?
Response given: 90%

Challenge: What does the data say about its mortality at 500 g/ha? Entry: Cc1nc([C@H](C)NC(=O)c2cc(Cl)cc(OC(F)(F)F)c2)n(-c2ccc(C#N)cn2)n1 [Example I-116]
Response given: 100%

Challenge: // mortality at 500 g/ha lookup, key: C[C@H](NC(=O)c1cc(C(F)(F)F)cc(C(F)(F)F)c1)c1ncnn1-c1ncc(Cl)cc1F [Example I-088]
Response given: 90%
